Measurement notes: solvent given as SMILES
Run parameters: in CC(C)=O
Cut-off 500 nm on absorption maximum, inclusive. At or above means 1; below means 0.

Structure: CCN(CC)c1ccc2cc(/C=C/C(=C(C#N)C#N)c3ccc(N(c4ccccc4)c4ccccc4)cc3)c(=O)oc2c1
Class assignment: 1
--
Structure: CN(C)c1ccc(/C=C/C=C2\CC/C(=C\c3ccc(N(C)C)cc3)C2=O)cc1
Class assignment: 0
--
Structure: COc1ccc(C(=O)/C=C/c2ccc(N(C)C)cc2)cc1OC
Class assignment: 0
--
Structure: C[n+]1ccc(-c2ccc([O-])cc2)cc1
Class assignment: 0

* * *

Measurement notes: solvent given as SMILES
Run parameters: in CCN(CC)CC
Parameter absorption maximum: see the listing below.
Observable: absorption maximum

Structure: c1ccc(-c2nc(-c3ccc(-c4ccc(-n5c6ccccc6c6ccccc65)cc4)cn3)oc2-c2ccccc2)cc1
Assay result: 333 nm

Structure: CC(C)(C)c1ccc(-c2nc3c4ccc(-c5ccccc5)cc4c4cc(-c5ccccc5)ccc4c3n2-c2ccc(C(C)(C)C)cc2)cc1
Assay result: 332 nm

Structure: c1ccc(-n2c(-c3ccc(-c4ccc(-c5ccc(-c6nc7c8ccccc8c8ccccc8c7n6-c6ccccc6)cc5)cc4)cc3)nc3ccccc32)cc1
Assay result: 341 nm

Structure: CC(C)(C)c1ccc(-c2nc3c4ccc(-c5cc6ccccc6c6ccccc56)cc4c4cc(-c5cc6ccccc6c6ccccc56)ccc4c3n2-c2ccc(C(C)(C)C)cc2)cc1
Assay result: 325 nm

Structure: Oc1ccccc1/C=N/N=C/c1ccccc1O
Assay result: 359 nm
